System: KM12 colon
assay protocol: NCI tumour cell line growth inhibition, 48 h
outcome measure: TGI

Consider the worked cases shown below.
Nc1n[nH]c2cccc(C#Cc3cccc(NC(=O)c4cccc(C(F)(F)F)c4)c3)c12: 19.8 µM
CCCCCCNCCc1cnc[nH]1: > 100 µM
CCOc1cc(C(C)(C)C)ccc1C1=N[C@H](c2ccc(Cl)cc2)[C@H](c2ccc(Cl)cc2)N1C(=O)N1CCN(CC#Cc2cccc3c2CN([C@@H]2CCC(=O)NC2=O)C3=O)CC1: > 100 µM

Let us examine a further case.
# TGI of `CC/C=C\C[C@H]1CC=C2C(=O)C=C[C@@H]2CC=CCCCC(=O)O[C@@H](CCCCC)CC=C2C(=O)C=C[C@@H]2CC=CCCCC(=O)O[C@@H](CCCCC)CC=C2C(=O)C=C[C@@H]2CC=CCCCC(=O)O[C@@H](CCCCC)CC=C2C(=O)C=C[C@@H]2CC=CCCCC(=O)O1` = > 7.9 µM
